Item-by-item account of maximum non-cytotoxic concentration toward Caco-2 cells
- Test system: Caco-2 cells
- ASSAY_PROCEDURE: In vitro cytotoxicity, MTT assay
- Type: cell-based
- ASSAY_CONDITIONS: human, Caco-2, 24 h
QUANTITY_KIND: maximum non-cytotoxic concentration toward Caco-2 cells

COMPOUND: OCCNCC(O)Cn1c(-c2ccccc2)c(-c2ccccc2)c2ccc3ccccc3c21 (stereo not drawn)
VAL: 0.87 µg/mL
//
COMPOUND: Cc1ccc2c(c1)c(-c1ccccc1)c(-c1ccccc1)n2CC(O)CNC(CO)(CO)CO (stereo not drawn)
VAL: 12.5 µg/mL
//
COMPOUND: OC(CNCCC1C=Nc2ccccc21)Cn1c2ccccc2c2ccccc21 (stereo not drawn)
VAL: 25.0 µg/mL
//
COMPOUND: Cc1ccc2c(c1)c(-c1ccccc1)c(-c1ccccc1)n2CC(O)CN(CCO)CCO (stereo not drawn) [G24, reference compound]
VAL: 25 µg/mL
//
COMPOUND: CCn1c2ccccc2c2cc(CNCCNCC(C)O)ccc21 (stereo not drawn)
VAL: 12.5 µg/mL
//
COMPOUND: OC(CNCCOc1ccccc1)Cn1c2ccccc2c2ccccc21 (stereo not drawn)
VAL: 12.5 µg/mL

Data origin: paper PMC11323271
